System: Tov112D
method: Primary qHTS to identify gynecologic anti-cancer compounds using libraries of approved drugs and bioactive compounds (AID 1345084); note: nearly all actives have a fitted effect of over 55% in size
measurementConditions: Gynecologic cancer cell panel viability, ATPlite luminescence, 48 h; series mostly up to 57.5 µM
Results filed as inconclusive are left out. Calls of active or inactive are those of the source. Calls come from the whole dose curve; as a rule, active = well fitted cell-killing curve with a large enough effect; inconclusive = small, poorly fitted or top-dose-only effect, or effect the other way; inactive = flat fitted curve, though single readings scatter.
Pick one: active, inactive

Which outcome was assigned to C=C1CCC2C(C)(C(=O)O)CCCC2(C)C1CCC(C)CC(=O)O (stereo not given) in this test?
inactive

---

Test system: Hek293T
method: Primary qHTS to identify gynecologic anti-cancer compounds using libraries of approved drugs and bioactive compounds (AID 1345084); note: nearly all actives have a fitted effect of over 55% in size
measurementConditions: Gynecologic cancer cell panel viability, ATPlite luminescence, 48 h, control line for the selectivity index; series mostly up to 57.5 µM
Records with an inconclusive call do not appear. The source made the active and inactive calls. The call rests on the fitted dose curve; in most records, active means well fitted cell-killing curve with a large enough effect; inconclusive means small, poorly fitted or top-dose-only effect, or effect the other way; inactive means flat fitted curve, though single readings scatter.
Result category, one only: true (active), false (inactive)

These solved cases illustrate the format of a correct answer.
* C=C[C@]1(C)C[C@H](O)[C@@H]2[C@H](OC(=O)[C@@H]2C)C1/C(C)=C/O[C@@H]1O[C@H](CO)[C@@H](O)[C@H](O)[C@H]1O (some centres not stated) | false
* CC1(C(=O)O)CCCC2(C)C3=CCC4CC3(CCC12)CC4CO (configuration not stated) | false
* CC(=O)C=C=C1C(C)(C)CC(O[C@@H]2O[C@H](CO)[C@@H](O)[C@H](O)[C@H]2O)CC1(C)O (some centres not stated) | false
* CC1=C(C)C(=O)OC(C(C)C2CCC3C4C5OC5C5(O)CC(OC6OC(CO)C(OC7OC(C)C(O)C(O)C7O)C(O)C6O)CC(O)C5(C)C4CCC23C)C1 (configuration not stated) | false
* COc1ccc(-c2ccc3c(N4CCOCC4)nc(N4CC(C)OC(C)C4)nc3n2)cc1CO (configuration not stated) | true

Field: outcome | Entry: `CC1(C)CCC(C)(C)c2cc(C3(c4ccc(C(=O)O)cc4)OCCO3)ccc21`
false

Query `Cc1onc(C(=O)N2CCN(C(c3ccc(Cl)cc3)c3ccc(Cl)cc3)CC2)c1[N+](=O)[O-]` next
false

Same question for CC(=O)c1ccc2c(c1)C(O)C(C(C)(C)O)O2 (configuration not stated) please.
false

Now try `CNC(=O)c1cc(Oc2ccc3nc(N[C@@H]4CCCC[C@H]4O)sc3c2)ccn1` .
false

And what about the compound `Cc1ccc(NC(=O)Nc2cc(C(F)(F)F)ccc2F)cc1Nc1ccc2c(c1)NC(=O)/C2=C\c1ccc[nH]1` ?
false

Can you check `C=C1C[C@]23C[C@H]1CC[C@H]2[C@@]1(C)CCC[C@@]2(C)C(=O)O[C@@H]([C@@H]3O)[C@@H]12` next?
false

How about `CC(C)S(=O)(=O)N[C@H]1CCOC[C@@H]1c1ccc(-c2ccc(C#N)s2)cc1` ?
false

---

experimentalTarget: Cytochrome P450 2D6 (Homo sapiens) (UniProt P10635)
Sequence (P10635 whole entry, looked up): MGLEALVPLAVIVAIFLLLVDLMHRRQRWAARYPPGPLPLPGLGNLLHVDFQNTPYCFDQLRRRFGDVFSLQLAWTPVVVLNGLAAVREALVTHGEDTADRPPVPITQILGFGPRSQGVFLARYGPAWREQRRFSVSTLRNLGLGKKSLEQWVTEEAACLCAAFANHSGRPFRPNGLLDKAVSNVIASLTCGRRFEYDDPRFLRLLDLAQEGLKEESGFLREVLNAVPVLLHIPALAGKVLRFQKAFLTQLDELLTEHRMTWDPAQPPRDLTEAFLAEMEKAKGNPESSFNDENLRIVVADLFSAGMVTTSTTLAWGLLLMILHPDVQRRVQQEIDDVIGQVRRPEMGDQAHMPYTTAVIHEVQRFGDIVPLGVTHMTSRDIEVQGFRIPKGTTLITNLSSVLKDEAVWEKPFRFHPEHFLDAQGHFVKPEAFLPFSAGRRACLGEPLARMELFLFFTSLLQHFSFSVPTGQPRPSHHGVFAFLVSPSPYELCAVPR
method: Cytochrome P450 family 2 subfamily D member 6 (CYP2D6) small molecule antagonists: luciferase biochemical (cell-free) qHTS assay (AID 1645840); note: nearly all actives have a fitted effect of over 55% in size
measurementConditions: P450-Glo CYP2D6 enzyme, luciferin luminescence, 1 h; series mostly up to 57.4 µM
Inconclusive results are not listed. Active and inactive are the calls of the source. The call rests on the fitted dose curve; in most records, active means well fitted inhibition curve with a large enough effect in the repeat runs; inconclusive means weak or mixed curves; inactive means flat fitted curve, though single readings scatter.
Answer with one of the outcomes given here: active, inactive

* O=C(c1ccccc1)c1ccc2nc(NC(=O)c3csc(C4CCN(c5ncnc6ccsc56)CC4)n3)[nH]c2c1 | inactive
* C[C@@H](Oc1cc(-n2cnc3ccc(OC4CCN(C)CC4)cc32)sc1C(N)=O)c1ccccc1C(F)(F)F | active
* CCCn1c(=O)c2[nH]c(-c3ccc(OCC(=O)O)cc3)nc2n(CCC)c1=O | inactive
* CCCC(=O)C1CCN(c2ncnc3c2CN(C(=O)c2ccc(-c4ccccc4)cc2)CC3)CC1 | active

For this molecule, state the assay outcome: `O=C(/C=C/c1cccc(S(=O)(=O)Nc2ccccc2)c1)NO`
active
